# reported EC50; entries follow
# TARGET SYSTEM: MOR (ProLink tagged MOR-PK1 cotransfected with GRK2 / β-arrestin-2) (Homo sapiens (Human), UniProt P35372)
# EXPERIMENTAL DETAILS: β-arrestin recruitment in the presence of GRK2, PathHunter assay
# SETTINGS: MOR activation, β-arrestin recruitment (+GRK2) EC50, HEK-293 cells cotransfected with GRK2

- COMPOUND: "C[C@@H](Cc1ccsc1)NC(=O)NCC1(N(C)C)Cc2ccc(O)cc2C1 (single isomer, unassigned) [DD 297B]"
  EC50 / nM: 670
- COMPOUND: "C[C@@H](Cc1ccsc1)NC(=O)NCC1(N(C)C)Cc2ccc(O)cc2C1 (single isomer, unassigned) [DD 297A]"
  EC50 / nM: 42
- COMPOUND: "C[C@@H](Cc1ccsc1)NC(=O)NCC1(N(C)C)CCc2cc(O)ccc2C1 (single isomer, unassigned) [DD 272B]"
  EC50 / nM: 450

---

# TARGET SYSTEM: human μOR (Homo sapiens (Human), UniProt P35372)
# EXPERIMENTAL DETAILS: cell-based
# SETTINGS: Example 1; read-out: MOR: cAMP BRET: EC50
# Experimental: Determination of functional activity of selected embodiments was performed using a BRET-based cAMP accumulation assay. […] After 24 hrs of transfection cells were seeded into white half-area 96-well plates at a density of 10000 cells/well and grown for further 24 hrs. […] BRET, measurement was performed using a Clariostar plate reader (BMG LabTech, Ortenberg, Germany).
ENDPOINT: EC50

- COMPOUND: "C[C@@H](Cc1ccsc1)NC(=O)NCC1(N(C)C)Cc2ccc(O)cc2C1 (single isomer, unassigned) [DD 297B]"
  VALUE: "12.5 nM"
- COMPOUND: "C[C@@H](Cc1ccsc1)NC(=O)NCC1(N(C)C)CCc2cc(O)ccc2C1 (single isomer, unassigned) [DD 272A]"
  VALUE: "136 nM"
- COMPOUND: "C[C@@H](Cc1ccsc1)NC(=O)NCC1(N(C)C)Cc2ccc(O)cc2C1 (single isomer, unassigned) [DD 297A]"
  VALUE: "1.8 nM"
- COMPOUND: "C[C@@H](Cc1ccsc1)NC(=O)NCC1(N(C)C)CCc2cc(O)ccc2C1 (single isomer, unassigned) [DD 272B]"
  VALUE: "1.6 nM"

---

# TARGET SYSTEM: human μOR (Homo sapiens (Human), UniProt P35372)
# EXPERIMENTAL DETAILS: cell-based
# SETTINGS: HEK-293T cells, forskolin 10 μM; mean of three to ten experiments; read-out: MOR activation, cAMP accumulation EC50
pEC50: −log10 of the molar value.
# reported pEC50; entries follow
ENDPOINT: pEC50

- COMPOUND: "C[C@@H](Cc1ccsc1)NC(=O)NCC1(N(C)C)Cc2ccc(O)cc2C1 (single isomer, unassigned) [DD 297A]"
  ENDPOINT: "pEC50"
  VALUE: 8.92
- COMPOUND: "C[C@@H](Cc1ccsc1)NC(=O)NCC1(N(C)C)CCc2cc(O)ccc2C1 (single isomer, unassigned) [DD 272A]"
  ENDPOINT: "pEC50"
  VALUE: 7.62
- COMPOUND: "C[C@@H](Cc1ccsc1)NC(=O)NCC1(N(C)C)CCc2cc(O)ccc2C1 (single isomer, unassigned) [DD 272B]"
  ENDPOINT: "pEC50"
  VALUE: 8.82
- COMPOUND: "C[C@@H](Cc1ccsc1)NC(=O)NCC1(N(C)C)Cc2ccc(O)cc2C1 (single isomer, unassigned) [DD 297B]"
  ENDPOINT: "pEC50"
  VALUE: 7.89

---

# TARGET SYSTEM: UniProt P35372
pKi: −log10 of the molar value.
Use 1 (yes) when the recorded pKi is no lower than 7; use 0 (no) when it is lower.

- COMPOUND: "C[C@@H](Cc1ccsc1)NC(=O)NCC1(N(C)C)Cc2ccccc2C1"
  TARGET SYSTEM: "UniProt P35372"
  ANSWER LABEL: "0 (no)"
- COMPOUND: "C[C@@H](Cc1ccsc1)NC(=O)NCC1(N(C)C)Cc2ccc(O)cc2C1 (single isomer, unassigned) [DD 297A]"
  TARGET SYSTEM: "UniProt P35372"
  ANSWER LABEL: "1 (yes)"
- COMPOUND: "C[C@@H](Cc1ccsc1)NC(=O)NCC1(N(C)C)CCc2ccccc2C1 (single isomer, unassigned) [DD 262 P1]"
  TARGET SYSTEM: "UniProt P35372"
  ANSWER LABEL: "0 (no)"
- COMPOUND: "C[C@@H](Cc1ccsc1)NC(=O)NCC1(N(C)C)Cc2ccc(O)cc2C1 (single isomer, unassigned) [DD 297B]"
  TARGET SYSTEM: "UniProt P35372"
  ANSWER LABEL: "0 (no)"
- COMPOUND: "C[C@@H](Cc1ccsc1)NC(=O)NCC1(N(C)C)CCc2cc(O)ccc2C1 (single isomer, unassigned) [DD 272B]"
  TARGET SYSTEM: "UniProt P35372"
  ANSWER LABEL: "1 (yes)"
- COMPOUND: "C[C@@H](Cc1ccsc1)NC(=O)NCC1(N(C)C)CCc2ccccc2C1 (single isomer, unassigned) [DD 262 P2]"
  TARGET SYSTEM: "UniProt P35372"
  ANSWER LABEL: "0 (no)"
